Kd overview
target: T1, extracellular domain of human BCMA (human, UniProt Q02223 1-54)
T1 construct: amine-linked to Octet AR2G tips; also called hsBCMA; BCMA (human)
T1 sequence: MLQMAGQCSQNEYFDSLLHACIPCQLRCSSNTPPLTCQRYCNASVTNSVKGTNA
test_details: Octet BLI; Fab 200 nM
parameter_measured: Kd

INSERT INTO measurements (binder, result) VALUES
  ('AB200-(2Vk44)_R2-VH-v35 (Fab, V domains shown) VH: QVQLVQSGAEVKKPGSSVKVSCKASGGTFSNYWIHWVRQAPGQGLEWMGATYRSHSDTYYAQKYKSRVTITADKSTSTAYMELSSLRSEDTAVYYCARGAIYHGYDVIENWGQGTLVTVSS VL: DIQMTQSPSSLSASVGDRVTITCRASQSISSYINWYQQKPGKAPKLLIYATSNLQIGVPSRFSGSGSGTDFTLTISSLQPEDFATYYCQQYRRLPWSFGQGTKLEIKR', '16.2 nM'),
  ('AB200-(2Vk44)_R2-VH-v58 (Fab, V domains shown) VH: QVQLVQSGAEVKKPGSSVKVSCKASGGTFSNYWIHWVRQAPGQGLEWMGGTYRIHSDTNYNQKFKSRVTITADKSTSTAYMELSSLRSEDTAVYYCARGAIYHGFDVIDNWGQGTLVTVSS VL: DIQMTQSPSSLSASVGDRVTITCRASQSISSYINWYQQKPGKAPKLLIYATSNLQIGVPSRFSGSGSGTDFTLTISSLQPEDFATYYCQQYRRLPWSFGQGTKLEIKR', '27.2 nM');

Just for reference, patent US20240327535A1 is where these values come from.
